Give measured melting point for each item. Keep answers brief.

Example entries begin here.
>  <compound>
O=C(N[C@H](Cc1ccc(F)cc1)C(=O)O)OCc1cc2cc(-c3ccccc3)ccc2o1 (hydrate or solvate)

>  <melting point>
131.5 to 135 °C

$$$$
>  <compound>
O=C(NC(Cc1ccccc1)C(=O)O)OCc1ccc(CCCc2ccccc2)cc1 (stereo not shown)

>  <melting point>
134.8 to 135.2 °C

$$$$
>  <compound>
O=C(N[C@H](Cc1ccccc1)C(=O)O)OCc1ccc2[nH]c(-c3ccccc3)cc2c1

>  <melting point>
176 to 177 °C

$$$$

Please give melting point for each item listed below.
1. N#Cc1cccc(-c2ccc3oc(COC(=O)N[C@H](Cc4ccccc4)C(=O)O)cc3c2)c1 (hydrate or solvate)
2. O=C(N[C@H](Cc1ccccc1)C(=O)O)OCc1cc2cc(-c3ccc4c(c3)OCO4)ccc2o1 (hydrate or solvate)
3. O=C(O)C(Cc1ccccc1)NC(=O)C(O)c1ccc(OCc2cccc3[nH]ccc23)cc1 (stereo not shown)
4. O=C(N[C@H](Cc1ccc(Br)cc1)C(=O)O)OCc1cc2cc(-c3ccccc3)ccc2o1

1: 64 to 68.5 °C; 2: 125 to 131 °C; 3: 178 to 181 °C; 4: 136 to 140 °C

---

observed_property: melting point

Please review the entries below; each comes with its answer.
>  <compound>
O=C(N[C@H](Cc1ccccc1)C(=O)O)OCc1ccc2oc(-c3ccc(F)cc3)nc2c1

>  <melting point>
208.2 to 208.5 °C

$$$$
>  <compound>
O=C(NC(Cc1ccccc1)C(=O)O)OCc1ccc(C#Cc2ccccc2)cc1 (stereo not shown)

>  <melting point>
172.1 to 173.4 °C

$$$$
>  <compound>
CC(C)n1cc(CC(NC(=O)OCc2ccc(-c3ccccc3)cc2)C(=O)O)c2ccccc21 (stereo not shown)

>  <melting point>
143.1 to 144.8 °C

$$$$

I need melting point for every entry listed below, if you could help.
1. O=C(N[C@H](Cc1ccccc1)C(=O)O)OCc1ccc2oc(-c3cc(F)cc(F)c3)nc2c1
2. O=C(NC(CNc1ccccc1)C(=O)O)OCc1ccc(-c2ccccc2)cc1 (stereo not shown)
3. O=C(N[C@H](Cc1ccccc1)C(=O)O)OCc1cc2cc(-c3cc(F)cc(F)c3)ccc2o1
4. O=C(N[C@H](Cc1ccccc1)C(=O)O)OCc1ccc(COc2ccccc2)cc1
5. O=C(NC(Cc1cccc(NS(=O)(=O)c2ccccc2)c1)C(=O)O)OCc1ccc(COc2ccccc2)cc1 (stereo not shown)

193.8 to 195 °C
143 to 146 °C
163 to 167 °C
115.9 to 116.7 °C
129.7 to 130.3 °C

Give melting point for each of the items listed below.
1. O=C(N[C@H](Cc1ccccc1)C(=O)O)OCc1cc2cc(-c3cc(F)ccc3F)ccc2o1
2. O=C(O)CC(NC(=O)OCc1cc2cc(-c3ccccc3)ccc2o1)c1ccccc1 (stereo not shown)
3. O=C(N[C@H](Cc1ccccc1)C(=O)O)OCc1ccc2nc(-c3ccccc3)ccc2c1
4. CC(C)(C)c1ccc(-c2ccc3oc(COC(=O)N[C@H](Cc4ccc(F)cc4)C(=O)O)cc3c2)cc1
5. O=C(NC(Cc1ccccc1)C(=O)O)OCc1ccc(/C=C/c2ccccc2)cc1 (stereo not shown)
6. O=C(NC(Cc1ccccc1)C(=O)O)OCc1cc2cc(-c3cncnc3)ccc2o1 (stereo not shown)

["89.4 to 92.6 °C", "168 to 169.8 °C", "190 to 191 °C", "114.3 to 124.6 °C", "165 to 168.5 °C", "192 to 192.5 °C"]

Report melting point for each item below.
1. O=C(N[C@H](Cc1ccccc1)C(=O)O)OCc1cc2cc(-c3ccc(F)cc3)ccc2o1 (hydrate or solvate)
2. O=C(N[C@H](Cc1ccccc1)C(=O)O)OCc1cc2cc(-c3cccc(F)c3F)ccc2o1
3. CCn1cc(CC(NC(=O)OCc2ccc(-c3ccccc3)cc2)C(=O)O)c2ccccc21 (stereo not shown)
4. O=C(N[C@H](Cc1ccccc1)C(=O)O)OCc1cc2cc(Cc3ccccc3)ccc2o1
5. O=C(NC(Cc1ccccc1)C(=O)O)OCc1coc2ccc(-c3ccccc3)cc12 (stereo not shown)
6. O=C(N[C@H](Cc1ccccc1)C(=O)O)OCc1ccc(COc2cccc([N+](=O)[O-])c2)cc1

["129.5 to 131.5 °C", "159 to 160 °C", "136.8 to 138.5 °C", "159.4 to 160.1 °C", "177.6 to 178.6 °C", "160.8 to 161.7 °C"]

Would you mind giving melting point for every compound in the list below?
1. O=C(N[C@H](Cc1ccc(F)cc1)C(=O)O)OCc1cc2cc(-c3cccnc3)ccc2o1 (hydrate or solvate)
2. O=C(NC(Cc1ccccc1)C(=O)O)OCCCc1ccc(-c2ccccc2)cc1 (stereo not shown)

176.9 to 178.4 °C
139.1 to 139.9 °C

I need melting point for every entry listed below, if you could help.
1. O=C(NC(Cc1ccc(F)cc1)C(=O)O)OCc1ccc(-c2ccc(O)cc2)cc1 (stereo not shown)
2. Cn1c(-c2ccccc2)nc2cc(COC(=O)N[C@H](Cc3ccccc3)C(=O)O)ccc21
3. O=C(N[C@H](Cc1ccccc1)C(=O)O)OCc1cc2cc(-c3ccc(F)c(F)c3)ccc2o1

["65 to 74 °C", "176 to 177 °C", "98.9 to 101.7 °C"]

List reported melting point for each of these compounds:
1. O=C(N[C@H](Cc1ccccc1)C(=O)O)OCc1cc2cc(-c3cccc4c3OCO4)ccc2o1
2. O=C(N[C@H](Cc1ccccc1)C(=O)O)OCc1ccc(COc2cccc(NC(=O)c3ccccc3)c2)cc1

191 to 192 °C
161.9 to 163.7 °C

Hi! Can you tell me melting point for each of these compounds?
1. CC(=O)Nc1cccc(OCc2ccc(COC(=O)N[C@H](Cc3ccccc3)C(=O)O)cc2)c1
2. O=C(O)CC(Cc1ccccc1)NC(=O)OCc1cc2cc(-c3ccccc3)ccc2o1 (stereo not shown)
3. O=C(N[C@H](Cc1ccccc1)C(=O)O)OCc1ccc(COc2cccc(NS(=O)(=O)c3ccccc3)c2)cc1
4. O=C(NC(Cc1ccccc1)C(=O)O)OCc1ccc(COc2ccccc2F)cc1 (stereo not shown)

190.3 to 193.5 °C
168 to 169.8 °C
96.6 to 98.6 °C
114 to 117 °C

---

Please provide measured melting point for the entries that follow.

Known results for compounds:
>  <compound>
COc1ccc(NCC(NC(=O)OCc2ccc(-c3ccccc3)cc2)C(=O)O)cc1 (stereo not shown) [Compound 180]

>  <melting point>
152.6 to 154.8 °C

$$$$
>  <compound>
O=C(N[C@H](Cc1ccc(F)cc1)C(=O)O)OCc1ccc2oc(-c3ccc(F)cc3)nc2c1 [Compound 157]

>  <melting point>
197.1 to 198.7 °C

$$$$
>  <compound>
O=C(N[C@H](Cc1ccc(F)cc1)C(=O)O)OCc1cc2cc(-c3cc(F)ccc3F)ccc2o1 [Compound 121]

>  <melting point>
98 to 101 °C

$$$$

Fill in melting point for record O=C(NC(Cc1ccccc1)C(=O)O)OCc1ccc(COc2ccccc2)c(F)c1 (stereo not shown) [Compound 82]
104.2 to 104.7 °C

---

So I've got a bunch of molecules here, and I need their melting point values.

Some entries whose results are on file:
>  <molecule>
O=C(N[C@H](Cc1ccc(F)cc1)C(=O)O)OCc1ccc2oc(-c3ccc(F)cc3)cc2c1 [Compound 140]

>  <melting point>
201 to 204 °C

$$$$
>  <molecule>
O=C(N[C@H](Cc1ccc(F)cc1)C(=O)O)OCc1cc2cc(-c3ccc(F)c(F)c3)ccc2o1 [Compound 122]

>  <melting point>
97 to 99.1 °C

$$$$

List the reported melting point of each molecule below.
1. O=C(N[C@H](Cc1cccc(F)c1)C(=O)O)OCc1cc2cc(-c3ccc(F)cc3)ccc2o1 [Compound 120]
2. O=C(NC(Cc1cccc(NS(=O)(=O)c2ccccc2)c1)C(=O)O)OCc1cc2cc(-c3ccccc3)ccc2o1 (stereo not drawn) [Compound 171]

1: 81.7 to 82.9 °C; 2: 105 to 108 °C

# batch size: 2; output melting point per entry
1. COc1cccc(OCc2ccc(COC(=O)NC(Cc3ccccc3)C(=O)O)cc2)c1 (stereo not drawn) (hydrate or solvate) [Compound 154]
2. N#Cc1cccc(-c2nc3cc(COC(=O)N[C@H](Cc4ccc(F)cc4)C(=O)O)ccc3o2)c1 [Compound 159]

1. 62.5 to 64.8 °C
2. 208.5 to 209.2 °C

Please give melting point, item by item, for the list that follows.
1. O=C(NC(Cc1cccnn1)C(=O)O)OCc1cc2cc(-c3ccccc3)ccc2o1 (stereo not drawn) [Compound 167]
2. N#Cc1cccc(-c2ccc3oc(COC(=O)N[C@H](Cc4ccc(F)cc4)C(=O)O)cc3c2)c1 (hydrate or solvate) [Compound 112]
3. COc1ccc(-c2ccc3oc(COC(=O)N[C@H](Cc4ccccc4)C(=O)O)cc3c2)cc1 (hydrate or solvate) [Compound 92]
4. O=C(NC(Cc1ccccc1)C(=O)O)OCc1ccc(NC(=O)c2ccccc2)cc1 (stereo not drawn) [Compound 181]
5. O=C(N[C@H](Cc1ccccc1)C(=O)O)OCc1ccc(OCCCc2ccccc2)cc1 [Compound 87]
6. O=C(N[C@H](Cc1ccc(F)cc1)C(=O)O)OCc1ccc2oc(-c3cc(F)cc(F)c3)nc2c1 [Compound 160]

1: 174.7 to 175 °C; 2: 84 to 87.5 °C; 3: 132 to 156.1 °C; 4: 196.9 to 198.1 °C; 5: 105.6 to 106.5 °C; 6: 196.2 to 197.7 °C

Provide the reported melting point of each entry below, same order.
1. O=C(N[C@H](Cc1ccc(Cl)cc1)C(=O)O)OCc1cc2cc(-c3ccccc3)ccc2o1 [Compound 106]
2. O=C(NC(Cc1cncnc1)C(=O)O)OCc1cc2cc(-c3ccccc3)ccc2o1 (stereo not drawn) [Compound 173]
3. O=C(N[C@H](Cc1ccccc1)C(=O)O)OCc1ccc2oc(Cc3ccccc3)cc2c1 [Compound 139]

1. 151 to 157 °C
2. 181.4 to 184.5 °C
3. 108.8 to 110.5 °C

Entry source: patent US7056903B2
